# EXPERIMENTAL SYSTEM: T1, lecithin:cholesterol acyltransferase (LCAT), purified from human plasma (human, UniProt P04180 25-440)
# T1 sequence (looked up): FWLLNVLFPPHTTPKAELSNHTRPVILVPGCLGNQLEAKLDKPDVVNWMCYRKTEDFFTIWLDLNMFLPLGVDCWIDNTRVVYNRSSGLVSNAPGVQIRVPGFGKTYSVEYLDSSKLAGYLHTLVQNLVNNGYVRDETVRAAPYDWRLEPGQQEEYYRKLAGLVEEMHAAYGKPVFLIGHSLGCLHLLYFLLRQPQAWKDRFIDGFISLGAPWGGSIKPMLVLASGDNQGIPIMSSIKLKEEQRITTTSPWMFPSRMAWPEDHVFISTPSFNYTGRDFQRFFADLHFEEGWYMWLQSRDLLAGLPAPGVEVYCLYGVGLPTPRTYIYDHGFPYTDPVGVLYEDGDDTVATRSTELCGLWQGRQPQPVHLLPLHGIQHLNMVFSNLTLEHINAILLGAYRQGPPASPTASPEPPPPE
# ASSAY PROCEDURE: cell-based or functional assay
Non-standard residues stand in square brackets, D forms with d. No end group written: not given here. Aib = CC(C)(N)C(=O)O
OBSERVABLE: ACTIVITY (%) LCAT

>  <BINDER>
[Aib]VLDLFRELLNELLEALKQKLK [peptide 32]

>  <ACTIVITY (%) LCAT>
33

$$$$

a: PVLDEFREKLNEELEA[Aib]KQKLK [peptide 119]
b: PVLDLFLELLNE[Aib]LEALKQKLK [peptide 31]
c: Ac-DWLKAFYDKVAEKLKEAF-NH2 [peptide 240]
d: PVLELFENLLEKLLEALQKKLK [peptide 182]
e: Ac-NVLDLFRELLEELKQKLK-NH2 [peptide 200]
With regard to ACTIVITY (%) LCAT, arrange the entries in ascending order, please. Sort the labels as requested; that list is your answer.
a, d, c, b, e
(a: 0%, d: 7%, c: 10%, b: 34%, e: 75%)
